tested on: Plasmodium falciparum; assay: Antimalarial activity against multidrug-resistant Plasmodium falciparum K1; type: functional, organism-based
Listed compounds paired with reported IC50

compound	IC50 (µg/mL)
C[C@H]1Cc2c(C(=O)O)ccc(O)c2C(=O)O1	4
CC(=O)O[C@@H]1/C=C/[C@@](C)(O)C(=O)[C@@H](C)C/C=C/[C@H]2[C@@H]3O[C@]3(C)[C@@H](C)[C@H]3[C@H](Cc4ccccc4)NC(=O)[C@@]312	17
C/C(=C\C1OC(C)(C)O[C@@H]1[C@H](C)C1=CC[C@@]2(C)C[C@@H]3[C@H](C)CC[C@@H]3/C(C(=O)O)=C\C[C@H]12)C(=O)O (some centres undefined)	19
C/C(=C\[C@H](O)[C@H](O)[C@H](C)C1=CC[C@@]2(C)C[C@@H]3[C@H](C)CC[C@@H]3/C(C(=O)O)=C\C[C@H]12)C(=O)O	13

Values compiled from ChEMBL document CHEMBL1133881.
